Please go through the items and note down their cell viability.
Tested on: DFTD cell line T4 (07/0192)
experiment notes: cell viability, percent of DMSO control (CellTiter-Glo); higher = more viable cells
test settings: 13.5 µM; 72 h
Your answer should be a plain number; it is taken to be in %.

Q. Fill in the blank: the reported cell viability of C#Cc1cccc(Nc2ncnc3cc(OCCOC)c(OCCOC)cc23)c1.Cl [Erlotinib hydrochloride] is ____.
A. 19.7

Q. Fill in the blank: the reported cell viability of CN(C)C/C=C/C(=O)Nc1cc2c(Nc3ccc(F)c(Cl)c3)ncnc2cc1O[C@H]1CCOC1 is ____.
A. 1.47

Q. Fill in the blank: the reported cell viability of Cn1cnc2c(F)c(Nc3ccc(Br)cc3Cl)c(C(=O)NOCCO)cc21.O=S(=O)(O)O is ____.
A. 31.1

Q. Fill in the blank: the reported cell viability of Cc1cc(Nc2ncnc3ccc(NC4=NC(C)(C)CO4)cc23)ccc1Oc1ccn2ncnc2c1 is ____.
A. 36.6

* * *

System: DFTD cell line T1 (06/2887)
experiment notes: cell viability, percent of DMSO control (CellTiter-Glo); higher = more viable cells
test settings: 13.5 µM; 72 h
Labelling field: enter t if recorded cell viability is less than 20%. Enter f if it equals or exceeds that cut-off.

Q. I wonder whether COc1cccc2c1C(=O)c1c(O)c3c(c(O)c1C2=O)C[C@@](O)(C(=O)CO)C[C@@H]3O[C@H]1C[C@H](N)[C@H](O)[C@H](C)O1.Cl has cell viability below 20%. Can you tell?
A. t

Q. I wonder whether C=CC(=O)Nc1cccc(Nc2nc(Nc3ccc(N4CCN(C(C)=O)CC4)cc3OC)ncc2C(F)(F)F)c1 [Rociletinib (CO-1686, AVL-301)] has cell viability below 20%. Can you tell?
A. t

Q. I wonder whether CCS(=O)(=O)c1cccc(-c2cc(C(=O)NC3CCN(C)CC3)c(C)c3[nH]c4ncc(C)cc4c23)c1 [TAK901] has cell viability below 20%. Can you tell?
A. t

Q. I wonder whether CCOc1cc2ncc(C#N)c(Nc3ccc(OCc4ccccn4)c(Cl)c3)c2cc1NC(=O)/C=C/CN(C)C [Neratinib(HKI-272)] has cell viability below 20%. Can you tell?
A. f

Q. I wonder whether CCN1CCN(Cc2ccc(-c3cc4c(N[C@H](C)c5ccccc5)ncnc4[nH]3)cc2)CC1 [AEE788] has cell viability below 20%. Can you tell?
A. t

Q. I wonder whether COc1cccc2c1C(=O)c1c(O)c3c(c(O)c1C2=O)C[C@@](O)(C(=O)CO)C[C@@H]3O[C@H]1C[C@H](N)[C@@H](O)[C@H](C)O1.Cl has cell viability below 20%. Can you tell?
A. t

Q. I wonder whether CNC(=O)CN1CCC(Oc2cc3c(Nc4cccc(Cl)c4F)ncnc3cc2OC)CC1 [AZD8931 (Sapitinib)] has cell viability below 20%. Can you tell?
A. f

Q. I wonder whether C#Cc1cccc(Nc2ncnc3cc(OCCOC)c(OCCOC)cc23)c1.Cl [Erlotinib hydrochloride] has cell viability below 20%. Can you tell?
A. t

Q. I wonder whether COc1cccc2c1C(=O)c1c(O)c3c(c(O)c1C2=O)C[C@@](O)(C(=O)CO)C[C@@H]3O[C@H]1C[C@H](N)[C@H](O)[C@H](C)O1 [Doxorubicin] has cell viability below 20%. Can you tell?
A. t

Q. I wonder whether Cn1nc(-c2ccccn2)nc2c(=O)n(C)c(=O)nc1-2 has cell viability below 20%. Can you tell?
A. t

Q. I wonder whether Cc1cc(Nc2ncnc3ccc(NC4=NC(C)(C)CO4)cc23)ccc1Oc1ccn2ncnc2c1 [Irbinitinib(ARRY-380; ONT-380)] has cell viability below 20%. Can you tell?
A. f

Q. I wonder whether COCCn1c2c([n+](Cc3cnccn3)c1C)C(=O)c1ccccc1C2=O.[Br-] [YM155] has cell viability below 20%. Can you tell?
A. t

Q. I wonder whether CC1(C)CC(=O)C2=C(C1)NC(=S)NC2c1cccc(O)c1 (centres undefined) [Dimethylenastron] has cell viability below 20%. Can you tell?
A. f

Q. I wonder whether C=CC(=O)N1CCC[C@@H](n2nc(-c3ccc(Oc4ccccc4)cc3)c3c(N)ncnc32)C1 has cell viability below 20%. Can you tell?
A. t

Q. I wonder whether C=CC(=O)Nc1cc(Nc2ncc(Cl)c(-c3c[nH]c4ccccc34)n2)c(OC)cc1N(C)CCN(C)C [Mutant EGFR inhibitor] has cell viability below 20%. Can you tell?
A. t

Q. I wonder whether CC#CC(=O)Nc1ccc2ncnc(Nc3cccc(Br)c3)c2c1 has cell viability below 20%. Can you tell?
A. t

Q. I wonder whether C=CC(=O)N1CCC(Oc2cc3c(Nc4ccc(Cl)c(Cl)c4F)ncnc3cc2OC)CC1 [Poziotinib (HM781-36B)] has cell viability below 20%. Can you tell?
A. f

Q. I wonder whether COc1cc2ncnc(Nc3ccc(Cl)cc3F)c2cc1OC has cell viability below 20%. Can you tell?
A. f

Q. I wonder whether CN(C)C/C=C/C(=O)Nc1cc2c(Nc3ccc(F)c(Cl)c3)ncnc2cc1O[C@H]1CCOC1 [Afatinib (BIBW2992)] has cell viability below 20%. Can you tell?
A. t

Q. I wonder whether O=c1c(=NNc2nnn[nH]2)c(=O)c2ccccc12 has cell viability below 20%. Can you tell?
A. t

Q. I wonder whether CCOc1cc2ncc(C#N)c(Nc3ccc(F)c(Cl)c3)c2cc1NC(=O)/C=C/CN(C)C [Pelitinib (EKB-569)] has cell viability below 20%. Can you tell?
A. t

Q. I wonder whether COc1cc2ncnc(Nc3cccc(Br)c3)c2cc1OC.Cl has cell viability below 20%. Can you tell?
A. t

* * *

Tested on: DFTD cell line T1 (06/2887)
experiment notes: cell viability, percent of DMSO control (CellTiter-Glo); higher = more viable cells
test settings: 4.5 µM; 72 h
Labelling field: enter true (1) if recorded cell viability is less than 20%. Enter false (0) if it equals or exceeds that cut-off.

Q. I wonder whether COc1cccc2c1C(=O)c1c(O)c3c(c(O)c1C2=O)C[C@@](O)(C(=O)CO)C[C@@H]3O[C@H]1C[C@H](N)[C@H](O)[C@H](C)O1 has cell viability below 20%. Can you tell?
A. true (1)

Q. I wonder whether COc1cc2ncnc(Nc3ccc(O)c(Br)c3)c2cc1OC has cell viability below 20%. Can you tell?
A. false (0)

Q. I wonder whether CC(C)(C)P(=NC(=S)NCCCO)(N1CCCCCC1)N1CCCCCC1 has cell viability below 20%. Can you tell?
A. false (0)

Q. I wonder whether Cn1cnc2c(F)c(Nc3ccc(Br)cc3Cl)c(C(=O)NOCCO)cc21.O=S(=O)(O)O has cell viability below 20%. Can you tell?
A. false (0)

Q. I wonder whether COCCn1c2c([n+](Cc3cnccn3)c1C)C(=O)c1ccccc1C2=O.[Br-] has cell viability below 20%. Can you tell?
A. true (1)

Q. I wonder whether COc1cc2ncnc(Nc3cccc(Cl)c3)c2cc1OC has cell viability below 20%. Can you tell?
A. false (0)

Q. I wonder whether CC#CC(=O)Nc1ccc2ncnc(Nc3cccc(Br)c3)c2c1 has cell viability below 20%. Can you tell?
A. true (1)

Q. I wonder whether CS(=O)(=O)CCNCc1ccc(-c2ccc3ncnc(Nc4ccc(OCc5cccc(F)c5)c(Cl)c4)c3c2)o1.Cc1ccc(S(=O)(=O)O)cc1 has cell viability below 20%. Can you tell?
A. false (0)

Q. I wonder whether CC1(C)CC(=O)C2=C(C1)NC(=S)NC2c1cccc(O)c1 (configuration not stated) has cell viability below 20%. Can you tell?
A. false (0)

Q. I wonder whether C#Cc1cccc(Nc2ncnc3cc(OCCOC)c(OCCOC)cc23)c1.Cl [Erlotinib hydrochloride] has cell viability below 20%. Can you tell?
A. false (0)

Q. I wonder whether C=CC(=O)Nc1cc(Nc2ncc(Cl)c(-c3c[nH]c4ccccc34)n2)c(OC)cc1N(C)CCN(C)C has cell viability below 20%. Can you tell?
A. true (1)

Q. I wonder whether COc1cc2ncnc(Nc3ccc(F)c(Cl)c3)c2cc1NC(=O)/C=C/CN1CCCCC1 has cell viability below 20%. Can you tell?
A. false (0)

* * *

Tested on: DFTD cell line T3 (06/0368)
experiment notes: cell viability, percent of DMSO control (CellTiter-Glo); higher = more viable cells
test settings: 0.0185 µM; 72 h
observation type: cell viability (%)
Your answer should be a plain number; it is taken to be in %.

Q. Request: cell viability, test system DFTD cell line T3 (06/0368), entry O=c1c(=NNc2nnn[nH]2)c(=O)c2ccccc12
A. 108

Q. Request: cell viability, test system DFTD cell line T3 (06/0368), entry COc1cc2ncnc(Nc3cccc(Cl)c3)c2cc1OC
A. 105

Q. Request: cell viability, test system DFTD cell line T3 (06/0368), entry COCCn1c2c([n+](Cc3cnccn3)c1C)C(=O)c1ccccc1C2=O.[Br-]
A. 95.3

Q. Request: cell viability, test system DFTD cell line T3 (06/0368), entry CC1(C)CC(=O)C2=C(C1)NC(=S)NC2c1cccc(O)c1 (configuration not stated)
A. 119

Q. Request: cell viability, test system DFTD cell line T3 (06/0368), entry COc1cc2ncnc(Nc3cccc(Br)c3)c2cc1OC.Cl
A. 90.2

Q. Request: cell viability, test system DFTD cell line T3 (06/0368), entry COc1cc2ncnc(Nc3cccc(Cl)c3F)c2cc1OC(=O)N1CCN(C)C[C@H]1C
A. 89.5

Q. Request: cell viability, test system DFTD cell line T3 (06/0368), entry C#Cc1cccc(Nc2ncnc3cc(OCCOC)c(OCCOC)cc23)c1.Cl [Erlotinib hydrochloride]
A. 105

Q. Request: cell viability, test system DFTD cell line T3 (06/0368), entry COc1cc2ncnc(Nc3ccc(Cl)cc3F)c2cc1OC
A. 89.3

Q. Request: cell viability, test system DFTD cell line T3 (06/0368), entry Cn1cnc2c(F)c(Nc3ccc(Br)cc3Cl)c(C(=O)NOCCO)cc21.O=S(=O)(O)O
A. 112

Q. Request: cell viability, test system DFTD cell line T3 (06/0368), entry COc1cccc2c1C(=O)c1c(O)c3c(c(O)c1C2=O)C[C@@](O)(C(=O)CO)C[C@@H]3O[C@H]1C[C@H](N)[C@@H](O)[C@H](C)O1.Cl
A. 110

Q. Request: cell viability, test system DFTD cell line T3 (06/0368), entry CCOc1cc2ncc(C#N)c(Nc3ccc(F)c(Cl)c3)c2cc1NC(=O)/C=C/CN(C)C [Pelitinib (EKB-569)]
A. 125

Q. Request: cell viability, test system DFTD cell line T3 (06/0368), entry CCS(=O)(=O)c1cccc(-c2cc(C(=O)NC3CCN(C)CC3)c(C)c3[nH]c4ncc(C)cc4c23)c1
A. 105

Q. Request: cell viability, test system DFTD cell line T3 (06/0368), entry C=CC(=O)Nc1cc2c(Nc3ccc(F)c(Cl)c3)ncnc2cc1OCCCN1CCOCC1
A. 110

Q. Request: cell viability, test system DFTD cell line T3 (06/0368), entry C=CC(=O)Nc1cc(Nc2ncc(Cl)c(-c3c[nH]c4ccccc34)n2)c(OC)cc1N(C)CCN(C)C
A. 93

Q. Request: cell viability, test system DFTD cell line T3 (06/0368), entry CS(=O)(=O)CCNCc1ccc(-c2ccc3ncnc(Nc4ccc(OCc5cccc(F)c5)c(Cl)c4)c3c2)o1.Cc1ccc(S(=O)(=O)O)cc1
A. 105

Q. Request: cell viability, test system DFTD cell line T3 (06/0368), entry COc1cccc2c1C(=O)c1c(O)c3c(c(O)c1C2=O)C[C@@](O)(C(=O)CO)C[C@@H]3O[C@H]1C[C@H](N)[C@H](O)[C@H](C)O1.Cl
A. 102

Q. Request: cell viability, test system DFTD cell line T3 (06/0368), entry CC(C)(C)P(=NC(=S)NCCCO)(N1CCCCCC1)N1CCCCCC1
A. 83.3

Where do the numbers come from? From the supplement of paper PMC6335503.
